tested on: 501Mel-GP cells (Dabrafenib-resistant); assay: Kinase inhibitor library screening, PrestoBlue cell viability, 1 or 10 μM, 72 h; details: 501Mel GP; 10μΜ; 72 h; in %
Measurement Label: cell viability, 501Mel GP, 10μΜ
Enter the number alone.

Q. Give cell viability, 501Mel GP, 10μΜ for C[C@@H]1CCN(C(=O)CC#N)C[C@@H]1N(C)c1ncnc2[nH]ccc12 tested on 501Mel-GP cells (Dabrafenib-resistant).
A. 94.8

Q. Give cell viability, 501Mel GP, 10μΜ for C#Cc1cccc(Nc2ncnc3cc(OCCOC)c(OCCO)cc23)c1 [Desmethyl Erlotinib (CP-473420)] tested on 501Mel-GP cells (Dabrafenib-resistant).
A. 74.9

Q. Give cell viability, 501Mel GP, 10μΜ for COc1cc2c(N3CCN(C(=O)Nc4ccc(OC(C)C)cc4)CC3)ncnc2cc1OCCCN1CCCCC1 tested on 501Mel-GP cells (Dabrafenib-resistant).
A. 85.5

Q. Give cell viability, 501Mel GP, 10μΜ for CCO.N#CC(=C(/N)Sc1ccccc1N)/C(C#N)=C(\N)Sc1ccccc1N tested on 501Mel-GP cells (Dabrafenib-resistant).
A. 75.1

Q. Give cell viability, 501Mel GP, 10μΜ for COc1cc2ncnc(Nc3ccc(O)c(Br)c3)c2cc1OC tested on 501Mel-GP cells (Dabrafenib-resistant).
A. 77.2

Q. Give cell viability, 501Mel GP, 10μΜ for CCN1CCN(Cc2ccc(-c3cc4c(N[C@H](C)c5ccccc5)ncnc4[nH]3)cc2)CC1 tested on 501Mel-GP cells (Dabrafenib-resistant).
A. 1.2

Q. Give cell viability, 501Mel GP, 10μΜ for O=c1cc(N2CCOCC2)oc2c(-c3cccc4c3sc3ccccc34)cccc12 tested on 501Mel-GP cells (Dabrafenib-resistant).
A. 32.9

Q. Give cell viability, 501Mel GP, 10μΜ for CS(=O)(=O)CCNCc1ccc(-c2ccc3ncnc(Nc4ccc(OCc5cccc(F)c5)c(Cl)c4)c3c2)o1.Cc1ccc(S(=O)(=O)O)cc1.Cc1ccc(S(=O)(=O)O)cc1 [Lapatinib Ditosylate (Tykerb)] tested on 501Mel-GP cells (Dabrafenib-resistant).
A. 78.0

###

test system: A375-XP cells (Vemurafenib-resistant); assay: Kinase inhibitor library screening, PrestoBlue cell viability, 1 or 10 μM, 72 h; settings: A375 XP, 10μΜ, 72 h; in %
Labelling: cell viability, A375 XP, 10μΜ reported below 60 becomes condition met; at or above becomes condition not met.

Q. hey, is cell viability, A375 XP, 10μΜ for C=CC(=O)Nc1cc2c(Nc3ccc(F)c(Cl)c3)ncnc2cc1OCCCN1CCOCC1 lower than 60 or not?
A. condition met

Q. hey, is cell viability, A375 XP, 10μΜ for Cc1c(NC(=O)OC[C@@H]2COCCN2)cn2ncnc(Nc3ccc4c(cnn4Cc4cccc(F)c4)c3)c12 lower than 60 or not?
A. condition not met

Q. hey, is cell viability, A375 XP, 10μΜ for CC(C)(C)c1cc(/C=C(\C#N)C(N)=S)cc(C(C)(C)C)c1O lower than 60 or not?
A. condition met

Q. hey, is cell viability, A375 XP, 10μΜ for O=c1cc(N2CCOCC2)oc2c(-c3cccc4c3sc3ccccc34)cccc12 lower than 60 or not?
A. condition met

Q. hey, is cell viability, A375 XP, 10μΜ for CCOc1cc2ncc(C#N)c(Nc3ccc(OCc4ccccn4)c(Cl)c3)c2cc1NC(=O)/C=C/CN(C)C lower than 60 or not?
A. condition met

Q. hey, is cell viability, A375 XP, 10μΜ for Nc1ncnc2c1c(-c1cccc(OCc3ccccc3)c1)cn2C1CC(CN2CCCC2)C1 (stereo not shown) lower than 60 or not?
A. condition met

Q. hey, is cell viability, A375 XP, 10μΜ for C#Cc1cccc(Nc2ncnc3cc(OCCOC)c(OCCO)cc23)c1 [Desmethyl Erlotinib (CP-473420)] lower than 60 or not?
A. condition not met

###

Assign cell viability (kinase inhibitor library screening) to each entry below.
test system: 501Mel-GP cells (Dabrafenib-resistant); test: Kinase inhibitor library screening, PrestoBlue cell viability, 1 or 10 μM, 72 h; conditions: 501Mel GP, 1μΜ, 72 h
Answers without a unit are incomplete; give the number and then its unit.

Q. Provide measured cell viability (kinase inhibitor library screening) value, entry: C[C@@H](Oc1cc(-c2cnn(C3CCNCC3)c2)cnc1N)c1c(Cl)ccc(F)c1Cl
A. 80.0%

Q. Provide measured cell viability (kinase inhibitor library screening) value, entry: CC(=O)c1c(C)c2cnc(Nc3ccc(N4CCNCC4)cn3)nc2n(C2CCCC2)c1=O.Cl [PD 0332991 (Palbociclib) HCl]
A. 83.8%

Q. Provide measured cell viability (kinase inhibitor library screening) value, entry: S=C(NCc1ccc2c(c1)OCO2)N1CCN(c2ncnc3c2oc2ccccc23)CC1
A. 105.2%

Q. Provide measured cell viability (kinase inhibitor library screening) value, entry: CNC(=O)c1ccc(-c2cnc3ncc(Cc4ccc5ncccc5c4)n3n2)cc1F
A. 81.7%

Q. Provide measured cell viability (kinase inhibitor library screening) value, entry: CCn1c(-c2nonc2N)nc2c(C#CC(C)(C)O)ncc(OC[C@H]3CCCNC3)c21
A. 87.1%

Q. Provide measured cell viability (kinase inhibitor library screening) value, entry: Cc1[nH]c(/C=C2\C(=O)Nc3ccc(S(=O)(=O)N(C)c4cccc(Cl)c4)cc32)c(C)c1C(=O)N1CCN(C)CC1
A. 111.1%

Q. Provide measured cell viability (kinase inhibitor library screening) value, entry: CCc1cccc(CC)c1NC(=O)N1Cc2n[nH]c(NC(=O)c3ccc(N4CCN(C)CC4)cc3)c2C1
A. 105.0%

Q. Provide measured cell viability (kinase inhibitor library screening) value, entry: O=C1NC(=O)[C@@H](c2cn3c4c(cccc24)CCC3)[C@@H]1c1c[nH]c2ccccc12 [ARQ 197 (Tivantinib)]
A. 40.8%

Q. Provide measured cell viability (kinase inhibitor library screening) value, entry: CC(C)c1cnn2c(NCc3ccccc3)cc(NCCCCCCN)nc12.Cl [BS-181 HCl]
A. 108.6%

Q. Provide measured cell viability (kinase inhibitor library screening) value, entry: CN(C)c1ccc(-c2nc3ncc(Cl)c(N4CCN(CC(=O)Nc5nccs5)CC4)c3[nH]2)cc1
A. 99.5%

Q. Provide measured cell viability (kinase inhibitor library screening) value, entry: Cc1ncc(-c2ccnc(Nc3ccc(S(C)(=O)=O)cc3)n2)n1C(C)C
A. 106.0%

Q. Provide measured cell viability (kinase inhibitor library screening) value, entry: CN(C[C@@H]1COCCO1)S(=O)(=O)Nc1ccc2ccc3ncc(-c4cnn(C)c4)cc3c(=O)c2c1
A. 90.6%

Q. Provide measured cell viability (kinase inhibitor library screening) value, entry: CCS(=O)(=O)Nc1ccc2c(c1)/C(=C(/Nc1ccc(CN3CCCCC3)cc1)c1ccccc1)C(=O)N2 [Hesperadin, reference compound]
A. 81.7%

Q. Provide measured cell viability (kinase inhibitor library screening) value, entry: Cc1[nH]nc2ccc(-c3cncc(OC[C@@H](N)Cc4ccccc4)c3)cc12
A. 64.5%

Q. Provide measured cell viability (kinase inhibitor library screening) value, entry: Nc1ncnc2c1c(-c1cnc3[nH]ccc3c1)nn2C1CCCC1 [PP-121, reference compound]
A. 44.0%

Q. Provide measured cell viability (kinase inhibitor library screening) value, entry: COc1cc2c(Nc3ccc(NC(=O)c4ccccc4)cc3)ncnc2cc1OCCCN1CCOCC1
A. 104.5%

Q. Provide measured cell viability (kinase inhibitor library screening) value, entry: CCS(=O)(=O)c1cccc(-c2cc(C(=O)NC3CCN(C)CC3)c(C)c3[nH]c4ncc(C)cc4c23)c1 [TAK-901, reference compound]
A. 88.7%

Q. Provide measured cell viability (kinase inhibitor library screening) value, entry: Cc1cc(CN2CCN(c3c(Br)cnc4nc(-c5ccc(N6CCN(C)CC6)cc5)[nH]c34)CC2)no1
A. 95.4%

Q. Provide measured cell viability (kinase inhibitor library screening) value, entry: CN1CCN(C2CCN(C(=O)Nc3cc(Oc4ccc(NC(=O)C5(C(=O)Nc6ccc(F)cc6)CC5)c(F)c4)ccn3)CC2)CC1 [Golvatinib (E7050)]
A. 81.2%

Q. Provide measured cell viability (kinase inhibitor library screening) value, entry: CC(=O)NCC(=O)N1[C@@H]2CC[C@H]1c1ccc(Nc3ncc(C(F)(F)F)c(NC4CCC4)n3)cc12
A. 89.2%

Q. Provide measured cell viability (kinase inhibitor library screening) value, entry: Cn1cc(-c2ccc3ncc(Cc4ccc5ncccc5c4)n3n2)cn1
A. 89.9%

Q. Provide measured cell viability (kinase inhibitor library screening) value, entry: COc1cc2c(Oc3ccc(NC(=O)C4(C(=O)Nc5ccc(F)cc5)CC4)cc3F)ccnc2cc1OCCCN1CCOCC1
A. 64.6%

Q. Provide measured cell viability (kinase inhibitor library screening) value, entry: CCN(CCO)CCCOc1ccc2c(Nc3cc(CC(=O)Nc4cccc(F)c4)[nH]n3)ncnc2c1
A. 99.2%

Q. Provide measured cell viability (kinase inhibitor library screening) value, entry: CNC(=O)c1nn(C)c2c1C(C)(C)Cc1cnc(Nc3ccc(N4CCN(C)CC4)cc3)nc1-2
A. 63.8%

Q. Provide measured cell viability (kinase inhibitor library screening) value, entry: CCc1cnn2c(NCc3ccc[n+]([O-])c3)cc(N3CCCC[C@H]3CCO)nc12 [Dinaciclib (SCH727965)]
A. 0.636%

Q. Provide measured cell viability (kinase inhibitor library screening) value, entry: CCc1cc2c(cc1N1CCC(N3CCOCC3)CC1)C(C)(C)c1[nH]c3cc(C#N)ccc3c1C2=O
A. 104.8%

Q. Provide measured cell viability (kinase inhibitor library screening) value, entry: Cc1ccc(NC(=O)c2ccc(CN3CCN(C)CC3)cc2)cc1Nc1nc(-c2cccnc2)cs1
A. 103.1%

Q. Provide measured cell viability (kinase inhibitor library screening) value, entry: O=C(NC1CCNCC1)c1[nH]ncc1NC(=O)c1c(Cl)cccc1Cl [AT7519, reference compound]
A. 96.2%

Q. Provide measured cell viability (kinase inhibitor library screening) value, entry: COCCNCc1ccc(-c2cc3nccc(Oc4ccc(NC(=S)NC(=O)Cc5ccc(F)cc5)cc4F)c3s2)nc1
A. 89.8%

Q. Provide measured cell viability (kinase inhibitor library screening) value, entry: O=c1[nH]c2ccc(Cl)cc2c(N[C@@H]2CN3CCC2CC3)c1-c1nc2ccccc2[nH]1 [CHIR-124, reference compound]
A. 40.5%

Cited source for all entries: paper PMC6364417
